Here the recorded Relative Inhibition of IL-13 induced TF-1 Proliferation IC50 is given for each entry.
Molecular target: T1, hIL-4Rα on cells (human, UniProt P24394 26-825)
T1 sequence: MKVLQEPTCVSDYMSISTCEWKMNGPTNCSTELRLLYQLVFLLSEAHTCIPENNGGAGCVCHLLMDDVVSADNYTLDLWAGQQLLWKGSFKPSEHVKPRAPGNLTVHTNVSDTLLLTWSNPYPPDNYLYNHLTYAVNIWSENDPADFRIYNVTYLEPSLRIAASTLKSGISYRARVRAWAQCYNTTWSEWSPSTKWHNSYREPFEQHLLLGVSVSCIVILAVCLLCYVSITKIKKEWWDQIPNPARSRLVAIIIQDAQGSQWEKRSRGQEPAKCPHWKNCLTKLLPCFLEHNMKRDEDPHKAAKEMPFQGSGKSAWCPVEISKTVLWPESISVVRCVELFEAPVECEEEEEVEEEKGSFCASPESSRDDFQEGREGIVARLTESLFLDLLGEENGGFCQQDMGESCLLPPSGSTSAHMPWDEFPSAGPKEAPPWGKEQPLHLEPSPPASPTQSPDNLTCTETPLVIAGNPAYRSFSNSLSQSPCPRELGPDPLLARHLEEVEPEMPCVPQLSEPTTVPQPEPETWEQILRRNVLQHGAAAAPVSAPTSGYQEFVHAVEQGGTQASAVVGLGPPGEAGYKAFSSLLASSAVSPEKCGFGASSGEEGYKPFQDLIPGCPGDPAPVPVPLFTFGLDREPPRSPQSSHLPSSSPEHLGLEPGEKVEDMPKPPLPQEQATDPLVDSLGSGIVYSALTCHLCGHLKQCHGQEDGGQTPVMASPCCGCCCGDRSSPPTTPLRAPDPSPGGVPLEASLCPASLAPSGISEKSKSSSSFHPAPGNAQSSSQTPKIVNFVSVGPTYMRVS
Assay: cell-based or functional assay
outcome.measure: Relative Inhibition of IL-13 induced TF-1 Proliferation IC50

{"columns": ["binder", "measured.value"],
 "data": [
  ["Construct 21 (mAb429) (antibody, IgG4, V domains shown, VH/VL only) VH: EVQLVESGGGLEQPGGSLRLSCAGSGFTFRTYAMTWVRQAPGKGLEWVSSISGSGGNIYYADSVKGRFTISRDNSKNTLYLQMNSLRAEDTAVYYCAKDRVSIYVRPRYYGLDVWGQGTTVTVSS VL: DIVMTQSPLSLPVTPGEPASISCTASQSLLYSIGYNYVDWYLQKSGQSPQLLIYLGSKRASGVPDRFSGSGSGTDFTLKISRVEAEDVGFYYCMQSLTSPYTFGQGTKLEIK", "0.498 relative to dupilumab"],
  ["Construct 27 (mAb435) (antibody, IgG4, V domains shown, VH/VL only) VH: EVQLVESGGGLEQPGGSLRLSCAGSGFTFTDFAMTWVRQAPGKGLEWVSSISGSGGNKYYADSVKGRFTISRDNSKNTLYLQMNSLRAEDTAVYYCAKDRLSVTVRPRYYGLDVWGQGTTVTVSS VL: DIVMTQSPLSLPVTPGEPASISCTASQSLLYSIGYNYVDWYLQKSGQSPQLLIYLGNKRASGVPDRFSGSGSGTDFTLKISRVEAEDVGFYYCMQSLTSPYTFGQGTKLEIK", "0.773 relative to dupilumab"]
]}
